In this section, each of the compounds is paired with its reported Ki.
# Target: UniProtKB P00742
# Sequence (P00742 41-179 limits assumed): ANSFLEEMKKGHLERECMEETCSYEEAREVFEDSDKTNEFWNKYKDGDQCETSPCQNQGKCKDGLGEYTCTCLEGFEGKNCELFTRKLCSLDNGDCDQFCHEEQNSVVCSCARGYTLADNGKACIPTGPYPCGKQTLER
# Sequence (P00742 235-488 limits assumed): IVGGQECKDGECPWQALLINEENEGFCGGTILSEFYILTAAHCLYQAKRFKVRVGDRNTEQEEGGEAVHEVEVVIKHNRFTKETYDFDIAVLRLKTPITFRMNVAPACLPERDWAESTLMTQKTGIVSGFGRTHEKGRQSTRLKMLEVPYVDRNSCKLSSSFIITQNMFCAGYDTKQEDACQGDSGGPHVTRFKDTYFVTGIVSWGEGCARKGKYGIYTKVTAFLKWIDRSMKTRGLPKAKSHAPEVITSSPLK
# Method notes: Inhibition of factor 10a (unknown origin) using Ac-QRSRpNA as substrate incubated for 30 mins measured for 7 mins by morrison plot analysis
Peptide text beside a SMILES is read from it.
Kindly answer with a numeric value in nM, unit omitted.

Ki in this record for CC(=O)N[C@@H](CCC(N)=O)C(=O)N[C@@H](CCCNC(=N)N)C(=O)N[C@@H](Cc1ccccc1)C(=O)N[C@H](C=O)CCCNC(=N)N (Ac-QRFR-aldehyde) : 570

Ki in this record for CC(=O)N[C@@H](CCC(N)=O)C(=O)N[C@@H](CCCNC(=N)N)C(=O)N[C@@H](CO)C(=O)N[C@H](C=O)CCCNC(=N)N (Ac-QRSR-aldehyde) : 360

----------
Peptide text beside a SMILES is read from it.
Measurement record for Coagulation factor XII (Homo sapiens); quantity recorded: Ki.
Kindly answer with a numeric value in nM, unit omitted.

Result for CC(=O)N[C@@H](CCC(N)=O)C(=O)N[C@@H](CCCNC(=N)N)C(=O)N[C@@H](Cc1ccccc1)C(=O)N[C@H](C=O)CCCNC(=N)N (Ac-QRFR-aldehyde) , tested on Coagulation factor XII (Homo sapiens), Ki: 180

***
Result for CC(=O)N[C@@H](CCC(N)=O)C(=O)N[C@@H](CCCNC(=N)N)C(=O)N[C@@H](CO)C(=O)N[C@H](C=O)CCCNC(=N)N (Ac-QRSR-aldehyde) , tested on Coagulation factor XII (Homo sapiens), Ki: 2390
